# System: HeLa cells
# test name: HeLa Proliferation assay (CellTiter Glo)
# Assay type: cell-based
# measurement setup: 72 hours
Form field: Proliferation assay HELA TD50 (one value per entry).

{"compound": "Cc1ccnc(-c2nc(O)c(O)c(C(=O)N[C@H](C)C3CCCCC3)n2)c1", "unit annotation": "µM", "measurement qualifier": "=", "Proliferation assay HELA TD50": 2.7357}
{"compound": "CC1(C)CCC(NC(=O)c2nc(-c3ccccn3)nc(O)c2O)CC1", "unit annotation": "µM", "measurement qualifier": "=", "Proliferation assay HELA TD50": 2.0452}
{"compound": "C[C@@H](NC(=O)c1nc(-c2cc(C(F)(F)F)ccn2)nc(O)c1O)C1CCCCC1", "unit annotation": "µM", "measurement qualifier": "=", "Proliferation assay HELA TD50": 5.9753}
{"compound": "CC1CCC(NC(=O)c2nc(-c3ccccn3)nc(O)c2O)CC1 (stereo not shown)", "unit annotation": "µM", "measurement qualifier": "=", "Proliferation assay HELA TD50": 3.2039}
{"compound": "CC(NC(=O)c1nc(-c2cc(Cl)ccn2)nc(O)c1O)C1CCC(F)(F)CC1 (stereo not shown)", "unit annotation": "µM", "measurement qualifier": "=", "Proliferation assay HELA TD50": 6.158}
{"compound": "CC(NC(=O)c1nc(-c2nccc3ccccc23)nc(O)c1O)C1CCC(F)(F)CC1 (stereo not shown)", "unit annotation": "µM", "measurement qualifier": "=", "Proliferation assay HELA TD50": 6.4522}
{"compound": "COc1ccc2nc(-c3nc(O)c(O)c(C(=O)N[C@H](C)C4CCCCC4)n3)ccc2c1", "unit annotation": "µM", "measurement qualifier": "=", "Proliferation assay HELA TD50": 3.66}
{"compound": "C[C@H](NC(=O)c1nc(-c2ccccn2)nc(O)c1O)C1CCCCC1", "unit annotation": "µM", "measurement qualifier": "=", "Proliferation assay HELA TD50": 0.5782}
{"compound": "CC(C)(CNC(=O)c1nc(-c2ccccn2)nc(O)c1O)C1CCCC1", "unit annotation": "µM", "measurement qualifier": "=", "Proliferation assay HELA TD50": 0.3986}
{"compound": "Cc1cccc(-c2nc(O)c(O)c(C(=O)N[C@H](C)C3CCCCC3)n2)n1", "unit annotation": "µM", "measurement qualifier": "=", "Proliferation assay HELA TD50": 4.6302}
{"compound": "O=C(NCCC1CCCCC1)c1nc(-c2ccccn2)nc(O)c1O", "unit annotation": "µM", "measurement qualifier": "=", "Proliferation assay HELA TD50": 4.2362}
{"compound": "C[C@@H](NC(=O)c1nc(-c2ccccn2)nc(O)c1O)C1CCCCC1", "unit annotation": "µM", "measurement qualifier": "=", "Proliferation assay HELA TD50": 3.1844}
{"compound": "CCNS(=O)(=O)c1ccc(-c2nc(O)c(O)c(C(=O)N[C@H](C)C3CCCCC3)n2)nc1", "unit annotation": "µM", "measurement qualifier": "=", "Proliferation assay HELA TD50": 12.629}
{"compound": "C[C@@H](NC(=O)c1nc(-c2cc(CCN)ccn2)nc(O)c1O)C1CCCCC1", "unit annotation": "µM", "measurement qualifier": "=", "Proliferation assay HELA TD50": 7.1338}
{"compound": "C[C@H](NC(=O)c1nc(-c2ccc3ccccc3n2)nc(O)c1O)C1CCCCC1", "unit annotation": "µM", "measurement qualifier": "=", "Proliferation assay HELA TD50": 7.5355}
{"compound": "C[C@H](NC(=O)c1nc(-c2ccc(N)cn2)nc(O)c1O)C1CCCCC1", "unit annotation": "µM", "measurement qualifier": "=", "Proliferation assay HELA TD50": 0.5425}
{"compound": "C[C@@H](NC(=O)c1nc(-c2nccc3ccccc23)nc(O)c1O)C1CCCCC1", "unit annotation": "µM", "measurement qualifier": "=", "Proliferation assay HELA TD50": 2.0709}
{"compound": "C[C@@H](NC(=O)c1nc(-c2cc(C(=O)OCc3ccccc3)ccn2)nc(O)c1O)C1CCCCC1", "unit annotation": "µM", "measurement qualifier": "=", "Proliferation assay HELA TD50": 6.4784}
{"compound": "CC1CCCCC1NC(=O)c1nc(-c2ccccn2)nc(O)c1O (stereo not shown)", "unit annotation": "µM", "measurement qualifier": "=", "Proliferation assay HELA TD50": 0.6946}
{"compound": "C[C@@H](NC(=O)c1nc(-c2cccc(Cl)n2)nc(O)c1O)C1CCCCC1", "unit annotation": "µM", "measurement qualifier": "=", "Proliferation assay HELA TD50": 8.2296}
{"compound": "C[C@@H](NC(=O)c1nc(-c2cc(N)ccn2)nc(O)c1O)C1CCCCC1", "unit annotation": "µM", "measurement qualifier": "=", "Proliferation assay HELA TD50": 1.5496}
{"compound": "Cc1cccnc1-c1nc(O)c(O)c(C(=O)N[C@H](C)C2CCCCC2)n1", "unit annotation": "µM", "measurement qualifier": "=", "Proliferation assay HELA TD50": 2.3339}
{"compound": "C[C@@H](NC(=O)c1nc(-c2nc3ccccc3[nH]2)nc(O)c1O)C1CCCCC1", "unit annotation": "µM", "measurement qualifier": "=", "Proliferation assay HELA TD50": 3.3965}
{"compound": "C[C@@H](NC(=O)c1nc(-c2ccc(C(N)=O)cn2)nc(O)c1O)C1CCCCC1", "unit annotation": "µM", "measurement qualifier": "=", "Proliferation assay HELA TD50": 26.976}
{"compound": "CC(NC(=O)c1nc(-c2ccccn2)nc(O)c1O)C1CCCC1 (stereo not shown)", "unit annotation": "µM", "measurement qualifier": "=", "Proliferation assay HELA TD50": 0.8839}
{"compound": "COc1ccc(-c2nc(O)c(O)c(C(=O)N[C@H](C)C3CCCCC3)n2)nc1", "unit annotation": "µM", "measurement qualifier": "=", "Proliferation assay HELA TD50": 0.9356}
{"compound": "CC1CCCC(NC(=O)c2nc(-c3ccccn3)nc(O)c2O)C1 (stereo not shown)", "unit annotation": "µM", "measurement qualifier": "=", "Proliferation assay HELA TD50": 1.9094}
{"compound": "C[C@@H](NC(=O)c1nc(-c2ccc(Cl)cn2)nc(O)c1O)C1CCCCC1", "unit annotation": "µM", "measurement qualifier": "=", "Proliferation assay HELA TD50": 2.0999}
{"compound": "Cc1ccc(-c2nc(O)c(O)c(C(=O)N[C@H](C)C3CCCCC3)n2)nc1C", "unit annotation": "µM", "measurement qualifier": "=", "Proliferation assay HELA TD50": 3.7577}
{"compound": "Cc1ccc(-c2nc(O)c(O)c(C(=O)N[C@H](C)C3CCCCC3)n2)nc1", "unit annotation": "µM", "measurement qualifier": "=", "Proliferation assay HELA TD50": 2.013}
{"compound": "C[C@@H](NC(=O)c1nc(-c2ccc(C(F)(F)F)cn2)nc(O)c1O)C1CCCCC1", "unit annotation": "µM", "measurement qualifier": "=", "Proliferation assay HELA TD50": 4.7177}
{"compound": "C[C@@H](NC(=O)c1nc(-c2cc(CCN(C)C)ccn2)nc(O)c1O)C1CCCCC1", "unit annotation": "µM", "measurement qualifier": "=", "Proliferation assay HELA TD50": 1.1684}
{"compound": "C[C@@H](NC(=O)c1nc(-c2cc(OCc3ccccc3)ccn2)nc(O)c1O)C1CCCCC1", "unit annotation": "µM", "measurement qualifier": "=", "Proliferation assay HELA TD50": 4.5896}
{"compound": "Cc1cccnc1-c1nc(O)c(O)c(C(=O)OCC2CCCCC2)n1", "unit annotation": "µM", "measurement qualifier": ">", "Proliferation assay HELA TD50": 50}
